Where these numbers come from: ChEMBL document CHEMBL5291721

molecular target: Adenosine receptor A3 (Homo sapiens); further: assay procedure not described here
Sequence (P0DMS8 whole entry): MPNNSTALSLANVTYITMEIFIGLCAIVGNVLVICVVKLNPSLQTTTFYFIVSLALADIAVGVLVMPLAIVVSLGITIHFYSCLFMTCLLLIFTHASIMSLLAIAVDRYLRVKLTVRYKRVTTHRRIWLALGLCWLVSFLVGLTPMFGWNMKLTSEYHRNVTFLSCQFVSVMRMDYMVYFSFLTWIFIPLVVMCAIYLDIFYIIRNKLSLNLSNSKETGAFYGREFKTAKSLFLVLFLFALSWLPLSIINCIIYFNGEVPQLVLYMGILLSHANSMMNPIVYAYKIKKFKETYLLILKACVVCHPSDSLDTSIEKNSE
READOUT_LABEL: AC50

[
  {
    "MOLECULE": "CC(=O)O[C@]1(C(C)=O)CC[C@H]2[C@@H]3C=C(C)C4=CC(=O)CC[C@@H]4[C@H]3CC[C@@]21C [NOMEGESTROL ACETATE]",
    "RESULT": "> 30 µM"
  },
  {
    "MOLECULE": "NC(=O)CN1CCCC1=O",
    "RESULT": "> 30 µM"
  },
  {
    "MOLECULE": "COc1ccc(-c2noc(CC(=O)O)c2-c2ccc(OC)cc2)cc1",
    "RESULT": "> 30 µM"
  },
  {
    "MOLECULE": "Cc1cc2cc3c(C)cc(=O)oc3c(C)c2o1",
    "RESULT": "> 30 µM"
  },
  {
    "MOLECULE": "C[C@@H](NCCCc1cccc(C(F)(F)F)c1)c1cccc2ccccc12",
    "RESULT": "8.1 µM"
  }
]
